B1: PLAGL1 (parent)
chain: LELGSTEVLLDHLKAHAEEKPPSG

variants of: B1; assay: protein stability index of a GFP-peptide fusion (GPS, HEK-293T) (PSI 1-6); higher = more stable; conditions: c terminus: a fixed tail appended;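 note: lentivirally expressed fusions sorted by FACS into six bins by GFP to DsRed ratio, PSI derived from sequencing read proportions per bin multiplied by bin number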
Parameter protein stability index: see the listing below.

variant-name	protein stability index
G24P	4.9
H16N	5.11
H16K	5.08
H16I	3.93
K20P	4.88
G4R	3.94
L1Q	4.99
H16V	4.05
A15R	3.89
H12K	3.99
H16P	5.07
P21D	4.92
L9D	4.91
A17K	4.11
E7P	5.07
L10V	5.1
P22N	4.95
